System: CCRF-CEM leukemia
Test name: NCI-60 one-dose screen, 48 h
Run conditions: 10 µM unless noted
The panel holds about 83,000 compounds, 20% with a hit somewhere; the sample as a whole holds those more often. Activity calls are given as the source filed them. The calls were made as follows: active = growth percent below 10; inactive = the rest.
Field 'call' accepts t = active, f = inactive

Exercise: Answer briefly: the call reported for Nc1nc(N)c2c(n1)NC(c1cccc(Nc3ccnc4cc(C(F)(F)F)ccc34)c1)CC(c1ccc3c(c1)OCO3)=N2 (stereo not given) in this assay.
Solution: f

Exercise: Answer briefly: the call reported for `Cc1ccc(C)c2c1sc1nc(N3CCOCC3)c(C#N)c(=O)n12` in this assay.
Solution: f

Exercise: Answer briefly: the call reported for O=C(/C=C/C12c3ccccc3C(c3ccccc31)C1C(=O)NC(=O)C12)c1ccc(Cl)cc1Cl (stereo not given) in this assay.
Solution: t

Exercise: Answer briefly: the call reported for `O=CCCCOCc1ccccc1` in this assay.
Solution: f

Exercise: Answer briefly: the call reported for `Cc1c2cnccc2c(C)c2c1c1cc(CO)ccc1n2C` in this assay.
Solution: t

Exercise: Answer briefly: the call reported for `N=C(N)c1ccc(-c2ccc(-c3cc(Cl)cc(Cl)c3)s2)s1` in this assay.
Solution: t

Exercise: Answer briefly: the call reported for `CCCCNC(=O)c1ccc2c(c1)nc(-c1ccccc1)n2C1CCCCC1` in this assay.
Solution: f

Exercise: Answer briefly: the call reported for `Cc1c2ccccc2nc2cc3c(cc12)[C@H]1CC[C@]2(C)C(=O)CC[C@H]2[C@@H]1CC3` in this assay.
Solution: f

Exercise: Answer briefly: the call reported for `CCOC(=O)c1cn2ncnc(Oc3ccc(NC(=O)NC4CC4)c(Cl)c3)c2c1C` in this assay.
Solution: f

Exercise: Answer briefly: the call reported for `C=CN(C(=O)N1CCN(c2cc3c(cc2F)c(=O)c(C(=O)O)cn3C2CC2)CC1)c1nc(-c2ccccc2)cs1` in this assay.
Solution: f

Exercise: Answer briefly: the call reported for C=C(C)[C@@H]1CC[C@]2(COC3CCCCO3)CC[C@]3(C)[C@H](CC[C@@H]4[C@@]5(C)C=C(C=O)C(=O)C(C)(C)[C@@H]5CC[C@]43C)[C@@H]12 (stereo not given in full) in this assay.
Solution: t

Exercise: Answer briefly: the call reported for `O=[N+]([O-])c1ccccc1Sc1ccccc1[N+](=O)[O-]` in this assay.
Solution: f

Exercise: Answer briefly: the call reported for `CC1=C2CC/C(C)=C/CC[C@]3(C)O[C@H]3CC/C(C)=C/[C@H]2OC1` in this assay.
Solution: f

Exercise: Answer briefly: the call reported for `Clc1ccc(-c2cc(-c3ccccc3)nc(N3CCN(CCCNc4ccnc5cc(Cl)ccc45)CC3)n2)cc1` in this assay.
Solution: t

Exercise: Answer briefly: the call reported for `ClCCn1cnc2c(SCc3ccccc3)ncnc21` in this assay.
Solution: f

Exercise: Answer briefly: the call reported for `COc1ccc2[nH]cc(-c3nonc3-c3c[nH]c4ccc(Br)cc34)c2c1` in this assay.
Solution: f

Exercise: Answer briefly: the call reported for `CN1C(=O)/C(=C/c2ccc(C(=O)Nc3ncc(Cc4cc(Cl)ccc4Cl)s3)cc2)SC1=S` in this assay.
Solution: f

Exercise: Answer briefly: the call reported for CS(=O)/C(C#N)=C\C=C\c1cccc(Cl)c1 (stereo not given) in this assay.
Solution: t

Exercise: Answer briefly: the call reported for `CCN(CC)CCCNc1cc(OC)c(OC)c2cccnc12` in this assay.
Solution: f

Exercise: Answer briefly: the call reported for `CCOC(=O)c1nnn(-c2no[n+]([O-])c2-c2ccc(OC)cc2)c1COc1cccc2cccnc12` in this assay.
Solution: t
